# Tested on: P. falciparum
# method: In vitro activity against erythrocytic stage of P. falciparum ([3H]-hypoxanthine incorporation)
# Assay type: cell-based, chloroquine-sensitive (3D7w) clone of P. falciparum
# run_parameters: Plasmodium falciparum, Erythrocyte, 72 h, ring stage parasitized erythrocytes, 3D7w clone, 48 h + 24 h with [3H]-hypoxanthine; read-out: IC50 (µM) Erythrocytic stage P. falciparum
Form field: IC50 (one value per entry).

compound: COc1cccc(OC)c1OC(C)C(O)c1ccc2c(c1)OC(F)(F)O2 (centres unmarked) [drawing 70]
IC50: > 40 µM
//
compound: COc1cc(C(O)C(C)Oc2c(OC)cc(-c3ccccc3)cc2OC)cc(OC)c1OC (centres unmarked) [drawing 78]
IC50: 11.5 µM
//
compound: COc1cc(C(O)C(C)Oc2c(OC)cc(C)cc2OC)cc(OC)c1OC (centres unmarked) [drawing 76]
IC50: > 40 µM
//
compound: COc1cc(C(O)C(C)Oc2c(OC)cccc2OC)cc(OC)c1OC (centres unmarked) [drawing 74]
IC50: > 40 µM
//
compound: COc1cc(C)cc(OC)c1OC(C)C(O)c1ccc2c(c1)OC(F)(F)O2 (centres unmarked) [drawing 72]
IC50: 13.6 µM
